Every entry's value here was drawn from ChEMBL document CHEMBL4627371.

- target of assay: Heat shock protein HSP90 (Homo sapiens, UniProt P07900+P08238)
- method: Inhibition of HSP90 ATPase activity (unknown origin)
- Format: protein assay
assay readout: IC50 (µM)

> print(dat)
                              smiles.string  assay.readout  readout.value
1  CCNC(=O)c1noc(-c2cc(C(C)C)c(O)cc2O)c1-c1cn[nH]c1           IC50          0.469
2  CCNC(=O)c1noc(-c2cc(C(C)C)c(O)cc2O)c1-c1cc(COCC(N)=O)no1           IC50          0.452
3  C=CCNCc1cc(-c2c(C(=O)NCC)noc2-c2cc(C(C)C)c(O)cc2O)on1           IC50          0.435
4  CCNC(=O)c1noc(-c2cc(C(C)C)c(O)cc2O)c1-c1cc(CN)no1           IC50          0.674
5  CCNC(=O)c1noc(-c2cc(C(C)C)c(O)cc2O)c1-c1cnn(C(C)C)c1           IC50          0.542
6  CCNC(=O)c1noc(-c2cc(C(C)C)c(O)cc2O)c1-c1cc(COCC(=O)O)no1           IC50           1.28
7  CCNC(=O)c1noc(-c2cc(C(C)C)c(O)cc2O)c1-c1cc(CNC(=O)CC)no1           IC50          0.382
8  CCNC(=O)c1noc(-c2cc(C(C)C)c(O)cc2O)c1-c1cnn(C)c1           IC50          0.482
9  CCCN(CCC)Cc1cc(-c2c(C(=O)NCC)noc2-c2cc(C(C)C)c(O)cc2O)on1           IC50          0.413

###

- target of assay: Heat shock protein HSP90 (Homo sapiens, UniProt P07900+P08238)
- method: Inhibition of HSP90 ATPase activity (unknown origin)
- Assay type: protein assay
assay readout: IC50 (µM)

> print(dat)
                              smiles.string                           target.of.assay  assay.readout  value.units  readout.value
1  CCNC(=O)c1noc(-c2cc(C(C)C)c(O)cc2O)c1-c1cc(CNC(C)=O)no1  Heat shock protein HSP90 (Homo sapiens, UniProt P07900+P08238)           IC50           µM            0.5
2  CCNC(=O)c1noc(-c2cc(C(C)C)c(O)cc2O)c1-c1cc(CC#N)no1  Heat shock protein HSP90 (Homo sapiens, UniProt P07900+P08238)           IC50           µM           0.47
3  CCNC(=O)c1noc(-c2cc(C(C)C)c(O)cc2O)c1-c1ccn(CC)n1  Heat shock protein HSP90 (Homo sapiens, UniProt P07900+P08238)           IC50           µM          0.553
4  CCNC(=O)c1noc(-c2cc(C(C)C)c(O)cc2O)c1-c1ccn(C(C)C)n1  Heat shock protein HSP90 (Homo sapiens, UniProt P07900+P08238)           IC50           µM          0.543
5  CCNC(=O)c1noc(-c2cc(C(C)C)c(O)cc2O)c1-c1cc(C(=O)N2CCOCC2)no1  Heat shock protein HSP90 (Homo sapiens, UniProt P07900+P08238)           IC50           µM          0.583
6  CCNC(=O)c1noc(-c2cc(C(C)C)c(O)cc2O)c1-c1cc(COCC(=O)OC)no1  Heat shock protein HSP90 (Homo sapiens, UniProt P07900+P08238)           IC50           µM          0.443
